molecular target: furin, P09958; test: furin cleavage Z-score vs untreated control; higher = more cleavage, active = 3.5 or more, inactive = 1 or less, 8 variable residues between constant flanks; details: 15 min;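 further: purified furin at 1:10 enzyme:substrate in 50 mM HEPES pH 7.5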
Sequence (P09958 whole entry): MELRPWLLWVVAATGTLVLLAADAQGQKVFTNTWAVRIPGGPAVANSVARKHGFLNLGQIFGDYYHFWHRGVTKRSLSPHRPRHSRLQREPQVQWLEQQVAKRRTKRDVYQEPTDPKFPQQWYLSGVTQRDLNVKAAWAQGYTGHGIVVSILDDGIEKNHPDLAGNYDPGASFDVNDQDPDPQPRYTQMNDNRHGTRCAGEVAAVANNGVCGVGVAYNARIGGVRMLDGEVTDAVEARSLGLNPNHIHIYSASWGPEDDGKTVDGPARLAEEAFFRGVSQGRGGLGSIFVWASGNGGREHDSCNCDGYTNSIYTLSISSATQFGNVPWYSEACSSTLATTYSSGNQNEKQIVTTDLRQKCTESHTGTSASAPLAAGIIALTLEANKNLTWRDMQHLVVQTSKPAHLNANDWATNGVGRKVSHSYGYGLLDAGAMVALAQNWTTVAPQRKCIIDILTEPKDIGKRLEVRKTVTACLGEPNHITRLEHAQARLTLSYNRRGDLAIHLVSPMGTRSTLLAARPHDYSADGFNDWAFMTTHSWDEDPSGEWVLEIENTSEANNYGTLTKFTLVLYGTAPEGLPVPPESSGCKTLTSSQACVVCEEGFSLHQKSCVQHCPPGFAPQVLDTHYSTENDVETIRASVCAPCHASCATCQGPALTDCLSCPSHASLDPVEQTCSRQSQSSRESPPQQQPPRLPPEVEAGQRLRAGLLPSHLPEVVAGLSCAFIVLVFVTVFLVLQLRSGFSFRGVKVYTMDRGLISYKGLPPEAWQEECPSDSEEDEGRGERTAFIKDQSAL
The other results are listed elsewhere or left out. How many sequences the whole screen found active is unknown.
Classification field: enter T for furin cleavage Z-score values not below 0.06, F for values below it.

CATLRRYKRHAGNASASA [FS-964]; T
CARRARVVWCAGNASASA [FS-1773]; F

// query Reported furin cleavage Z-score at or above 0.06? CARRARFVSKAGNASASA [FS-2592]
// result T

// query Reported furin cleavage Z-score at or above 0.06? CADQRPYCWHAGNASASA [HC401]
// result F

// query Reported furin cleavage Z-score at or above 0.06? CAPTGREKRPAGNASASA [FS-75]
// result T

// query Reported furin cleavage Z-score at or above 0.06? CAGIDPNIRTAGNASASA [HC797]
// result F

// query Reported furin cleavage Z-score at or above 0.06? CARQSRAPSKAGNASASA [FS-3044]
// result F
